# Target under test: Ara h 2 (purified natural peanut allergen) (Arachis hypogaea) (UniProt Q6PSU2)
# Sequence (Q6PSU2 22-172): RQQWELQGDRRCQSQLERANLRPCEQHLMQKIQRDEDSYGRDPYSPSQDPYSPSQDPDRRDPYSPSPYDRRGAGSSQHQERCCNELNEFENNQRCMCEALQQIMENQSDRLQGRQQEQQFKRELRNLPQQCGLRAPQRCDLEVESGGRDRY
# Procedure summary: BLI, antibody on anti-human IgG Fc sensors, Ara h 2 as analyte, top 6 nM
Quantity kind: pKd
Just the number, please; pKd means minus log10 of the concentration in mol/L.

PA12P1C07 (antibody, human IgG1, V domains shown) VH: QVQLEESGGGVVQPGKSLRLSCVASAFTFKRFAMHWVRQAPGKGLEWVAVISDNGLREDYEDSVKGRFTISRDNSKDTLYLQMNSLRPEDTAIYYCAKVLDYSEYSLYFGMDVWGQGTTVLVSS VL: EIVLTQSPAILSLSPGDRATLSCRTSQTVNSNFLAWYQQKPGQAPRLLIYGASRRAIDIPDRFTGSGSGTEFTLTIARLEPEDFAVYSCQHYSDSPPYTFGQGTKLEIK = 10.77

Enquiry: Retrieve pKd measured for PA13P1H08 variant rCDR2-N (antibody, human IgG1, V domains shown) VH: QVQLVNSGGGVVQPGRSLRLSCVASGFTFSTFGIHWVRQAPGKGLEWVAVISYDGSNKESADSVKGRFTPSRDNSKNTVYLQMNNLRVEDTAVYYCAKVLDYSRYSYYYGMDVWGQGTTVIVSS VL: EIVLTQSPGTLSLSPGGRGTLSCRTSQTINNAHLAWYQHKPGQAPRLLIYGSSERATGVPDRFSGSGSGSDFTLTISSLEAEDFAVYYCQHYGRSPPYTFGPGTKLDIK and print it.
Return: 11.10

Enquiry: Retrieve pKd measured for PA15P1D05 (antibody, human IgG1, V domains shown) VH: QVHLVESGGGVVQPGRSLGLSCVASGFTFNYYAIHWVRQAPGKGLEWVAVVSFDGNIIYYADSVKGRFNISRDNSKNTVNLQMNSLRPDDTAVYYCVRDGEYCSGGNCYWGDFDHWGQGSLVTVSP VL: EIVLTQSPATLSLSPGERATLSCRASQSISSEYLTWFQQKPGQAPRLLIYGAFNRATGIPDRFSGSGSGTDFTLTISSLEPEDFAVYYCQQYANWWTFGQGTKVEIK and print it.
Return: 9.27

Enquiry: Retrieve pKd measured for PA15P1D12 (antibody, human IgG1, V domains shown) VH: QVHLVESGGGVVQPGRSLGLSCAASGFTFNYYAIHWVRQAPGKGLEWVAVVSFDGNIIYYADSVKGRFNISRDNSKNTVNLQMNSLRADDTAVYYCVRDGEYCSGGNCYWGDFDYWGQGTLVTVSP VL: EIVLTQSPGTLSLSPGERATLSCRASQSISSEYLTWFQQKPGQAPRLLIYGAFNRATGIPDRFSGSGSGTDFTLTISSLEPEDFAVYYCQQYANWWTFGQGTKVEIK and print it.
Return: 9.19

Enquiry: Retrieve pKd measured for PA12P3D08 (antibody, human IgG1, V domains shown) VH: QVQLVESGGGVVQPGKSLRLSCAASAFTFRRFAMHWVRQAPGKGLEWVAVISDNGLREDYEDSVKGRFTISRDNSQNTLYLQMNGLRAEDTAVYYCAKVLDYNEYSLYFGMDVWGQGTTVTVSS VL: EVVLTQSPATLSLSPGERATLSCRTSQAISNNFLAWYQQRPGQPPRLLIYASSRRATDTPDRFTGSGSGTDFTLTITRLEPEDFAVYFCQYYSDSPPYTFGPGTKLEIK and print it.
Return: 10.85

Enquiry: Retrieve pKd measured for PA13P1H08 variant rCDR1-N (antibody, human IgG1, V domains shown) VH: QVQLVNSGGGVVQPGRSLRLSCVASGFTFSSYGIHWVRQAPGKGLEWVAVISNDGEKSESADSVKGRFTPSRDNSKNTVYLQMNNLRVEDTAVYYCAKVLDYSRYSYYYGMDVWGQGTTVIVSS VL: EIVLTQSPGTLSLSPGGRGTLSCRTSQTINNAHLAWYQHKPGQAPRLLIYGSSERATGVPDRFSGSGSGSDFTLTISSLEAEDFAVYYCQHYGRSPPYTFGPGTKLDIK and print it.
Return: 10.80

The measured values listed here are drawn from patent US20210246195A1.
